- methodSummary: Half life in rat at 2 mg/kg, po and 2 mg/kg, iv
- Format: ADME, organism-based
- conditionNotes: in vivo
half-life: recorded values

{"mol": "CCCOCCn1c(=O)c(NCC(=O)N2CCOCC2)nc2ncc(-c3ccc(OC)nc3)cc21", "half-life / min": 48}
{"mol": "CCCOCCn1c(=O)c(N[C@H]2CC[C@H](O)CC2)nc2cnc(-c3ccc(OC)nc3)cc21", "half-life / min": 246}
{"mol": "CCCOCCn1c(=O)c(NCC(=O)N2CCOCC2)nc2cnc(-c3ccc(OC)nc3)cc21", "half-life / min": 48}
{"mol": "CCCOCCn1c(=O)c(NCCCO)nc2cnc(-c3ccc(OC)nc3)cc21", "half-life / min": 42}
{"mol": "CCCOCCn1c(=O)c(NCC(=O)N(C)C)nc2cnc(-c3ccc(OC)nc3)cc21", "half-life / min": 36}
{"mol": "CCCOCCn1c(=O)c(NCC(=O)N(C)C)nc2ncc(-c3ccc(OC)nc3)cc21", "half-life / min": 36}

---

- targetEntity: UniProtKB O76074
IC50: recorded values

{"mol": "CCCOCCn1c(=O)c(NCCOCC)nc2ncc(-c3ccc(OC)nc3)cc21", "targetEntity": "UniProtKB O76074", "IC50 / nM": 0.17}
{"mol": "CCCOCCn1c(=O)c(NCC(=O)N2CCOCC2)nc2cnc(-c3ccc(OC)nc3)cc21", "targetEntity": "UniProtKB O76074", "IC50 / nM": 0.15}
{"mol": "CCCOCCn1c(=O)c(N[C@H]2CC[C@H](O)CC2)nc2ncc(-c3ccc(OC)nc3)cc21", "targetEntity": "UniProtKB O76074", "IC50 / nM": 0.32}
{"mol": "CCCOCCn1c(=O)c(NCC2CCOCC2)nc2ncc(-c3ccc(OC)nc3)cc21", "targetEntity": "UniProtKB O76074", "IC50 / nM": 0.14}
{"mol": "CCCOCCn1c(=O)c(NCCN)nc2ncc(-c3ccc(OC)nc3)cc21", "targetEntity": "UniProtKB O76074", "IC50 / nM": 16.3}
{"mol": "CCCOCCn1c(=O)c(NC[C@H](C)O)nc2ncc(-c3ccc(OC)nc3)cc21", "targetEntity": "UniProtKB O76074", "IC50 / nM": 0.34}
{"mol": "CCCOCCn1c(=O)c(NC[C@H](C)O)nc2cnc(-c3ccc(OC)nc3)cc21", "targetEntity": "UniProtKB O76074", "IC50 / nM": 0.09}

// data source = ChEMBL document CHEMBL1155301
